B1: FAM189A2 (parent)
chain: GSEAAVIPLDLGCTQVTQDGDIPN

# Variants of: B1
# EXPERIMENT: protein stability index of a GFP-peptide fusion (GPS, HEK-293T) (PSI 1-6); higher = more stable;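 further: lentivirally expressed fusions sorted by FACS into six bins by GFP to DsRed ratio, PSI derived from sequencing read proportions per bin multiplied by bin number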
# MEASUREMENT PARAMETERS: c terminus: a fixed tail appended
// false (0) strictly below 5 in protein stability index; true (1) otherwise

Reference set (2 entries):
N24E	true (1)
I7A	true (1)

Does I22K have a reported protein stability index of at least 5? true (1)

Does V6S have a reported protein stability index of at least 5? true (1)

Does E3L have a reported protein stability index of at least 5? false (0)
